measured.attribute: flash point (°C)

Field: example entries. Status: answers known.
CCC(C)(C)c1ccccc1 | 59.4
Cc1ccccc1CC(C)C | 68.7
Cc1ccccc1C(C)(C)C | 61.5
CCCCc1cccc(CCCC)c1 | 109.2
CCCc1cccc(C)c1 | 52

a: CCc1ccc(C)cc1C
b: CCCCCCCc1ccccc1
Decide: a or b , by lowest recorded flash point. To answer, give the label that identifies your chosen option. a

P: Cc1cc(C)cc(C(C)(C)C)c1
Q: CCCCCCCCc1ccccc1
Rank P against Q by their flash point values and give the higher one. # reply format: chosen label Q

1: CCCCc1ccc(C)cc1
2: CC(C)(C)c1ccccc1
Param pair: 1 , 2 . Output: the one whose flash point is numerically greater. // return label of chosen record 1

P: Cc1ccc(C)c(C(C)C)c1
Q: CC(C)(C)c1ccc(C(C)(C)C)cc1
Compare reported flash point values for P and Q . Which is lower? Please indicate the selected item by its label. P
(P: 64.7 °C, Q: 97.0 °C)

---

measured.attribute: flash point (°C)

CCCO | 23
CCC(C)I (centres undefined) | 24

A: CCCCC(C)(C)C
B: C[C@@H]1CCC[C@H](C)C1 [cis-1,3-dimethylcyclohexane]
C: C=Cc1ccc(C)cc1
D: C=CCOCC
E: CCCCCCCCS
Arrange the 5 compounds from largest to smallest flash point. Please write the labels in the order that was asked for. E, C, B, A, D

---

measured.attribute: flash point (°C)

Some molecules with recorded flash point:
C=C(C)O[Si](C)(C)C [Trimethyl[(1-methylethenyl)oxy]silane] | -1.00
C[Si](C)(C)C[Si](C)(C)C [Bis(trimethylsilyl)methane] | 12.00

a: C=CC=CC[Si](C)(C)C [(2,4-Pentadienyl)trimethylsilane]
b: C[Si](C)(C)[SiH]([Si](C)(C)C)[Si](C)(C)C [Tris(trimethylsilyl)silane]
c: CCCCCC[SiH3] [Hexylsilane]
d: CCCCCCCC[SiH3] [n-Octylsilane]
Please put the entries in order of rising flash point. Give the labels in the order requested. c, a, d, b

---

measured.attribute: flash point (°C)

// solved cases for flash point follow
OCC1CO1 (configuration not stated) | 72.00
O=Cc1ccc(Cl)cc1Cl | 135.00
C[Si]1(C)O[Si](C)(C)O[Si](C)(C)O[Si](C)(C)O1 | 55.00

I: CC(C)CC(C)C(C)C.CCCC(C)CC(C)C.CCCCC(C)C(C)C (configuration not stated)
II: CCC(C)Nc1ccc(NC(C)CC)cc1 (configuration not stated)
Given the two records I and II , choose the one whose flash point value is lower. In your reply, give the label of the chosen option. I
(I: 24.00 °C, II: 141.00 °C)

I: Cc1ccc(C(C)C)cc1O
II: Cc1ccccc1C=O
// compare: I vs II , metric flash point, want the smaller // return label of chosen record II
(II: 67.00 °C, I: 100.00 °C)

---

measured.attribute: flash point (°C)

# annotated cases, reported flash point shown
CCCCCCCCc1ccc(O)cc1 [4-octylphenol] | 113.00
O=C(O)c1ccccc1C(=O)O [phthalic acid] | 168.00
CCN(CC)C(C)=O [N,N-diethylacetamide] | 77.00
C1OCOCO1 [1,3,5-trioxane] | 45.00
CC(N)c1ccccc1 (centres undefined) [1-phenylethanamine] | 79.00

I: CN(C)CCCC1(c2ccccc2)C(=O)N(N(C)Cc2ccccc2F)c2ccccc21 (centres undefined)
II: Cc1cccc(Br)c1 [1-bromo-3-methylbenzene]
III: COCC(C)O (centres undefined) [1-methoxypropan-2-ol]
Would you mind ranking these compounds by ascending flash point? Response format: the labels, sorted as the prompt asks. III, II, I
(III: 36.00 °C, II: 60.00 °C, I: 193.00 °C)

---

measured.attribute: flash point (°C)

C1CCC(C2CCCCC2)CC1 | 92
CC1=CC(C)CCC1 (stereo unspecified) | 12
CCCCC(C)(C)C | -3
CCC(C)(C)C(C)(C)C | 16
CCCC1CCCC1 | 16

A: CC/C=C/CC [trans-3-hexene]
B: CCCC(C)CCC
Given the listed items, does A or B have the lesser reported flash point? To answer, give the label that identifies your chosen option. A
(A: -25 °C, B: 5 °C)

a: CCCCCC1CCCCC1
b: C=CC(CC)CC
c: CCCC(CCC)CCC
Please list these compounds in decreasing order of flash point. I would appreciate it if you listed the labels in the requested order. a, c, b
(a: 66 °C, c: 41 °C, b: -17 °C)

---

measured.attribute: flash point (°C)

Sample records with flash point:
CCOC(=O)CBr [ethyl 2-bromoacetate] | 48.00
CC(O)CCC(C)O (stereo unspecified) | 101.00
C=CC(=O)OCC(C)O (stereo unspecified) [2-hydroxypropyl prop-2-enoate] | 65.00
C=CCBr | -2.00

a: CC(C)c1ccccc1C(C)C
b: Oc1cccc2ccccc12
Kindly compare a with b and tell me which has the lower flash point figure. Reply briefly: the label of your chosen item. a
(a: 77.00 °C, b: 153.00 °C)

---

measured.attribute: flash point (°C)

Cc1cccc(CBr)c1 | 82.00
CC1(C)OCC(CO)O1 (centres undefined) | 80.00
Br/C=C/c1ccccc1 [[(E)-2-bromoethenyl]benzene] | 79.00
CC(C)c1ccc(NC(=O)N(C)C)cc1 | 100.00

---

measured.attribute: flash point (°C)

Nc1cccnc1 [pyridin-3-amine] | 190.00

P: C=C(Cl)C#N [2-chloroprop-2-enenitrile]
Q: CCCCCCCCO [octan-1-ol]
R: CCCCCCCCCCCCCCO [tetradecan-1-ol]
Endpoint returns the given compounds ordered by ascending flash point. Respond with an ordered listing of the labels, as requested. P, Q, R
(P: 7.00 °C, Q: 81.00 °C, R: 141.00 °C)

1: OCC1CCC(CO)CC1.OCC1CCC(CO)CC1 (stereo not drawn) [[4-(hydroxymethyl)cyclohexyl]methanol]
2: CCC(C)O (stereo not drawn) [butan-2-ol]
Identify the entry with the larger flash point. Options: 1 and 2 Record your answer as the label of the chosen record. 1

---

measured.attribute: flash point (°C)

P: Oc1ccccc1
Q: CCCCCCCCCCCC(=O)O
Which has the smaller recorded flash point, P or Q ? Please indicate the selected item by its label. P

---

measured.attribute: flash point (°C)

// below: answered molecules
CS(C)=O [dimethylsulfoxide] | 88
C=C(C)CC | -34
C=CC(=O)OCC(CC)CCCC (configuration not stated) [2-ethylhexyl acrylate] | 86
CC=C1CC2C=CC1C2 (configuration not stated) | 38
Oc1ccc(Cl)cc1 | 115
CC(C)C(C)S (configuration not stated) | 19
CC(C)OCCO | 43
C=CC#N | -1

1: CC1CCCCC1O (configuration not stated)
2: CCNC(C)C
When 1 and 2 are compared, which has the higher number for flash point? Let me know the label of the one you choose. 1

a: CC(=O)CC(=O)OC(C)(C)C [t-butyl acetoacetate]
b: CC1CCCO1 (configuration not stated) [2-methyltetrahydrofuran]
Of a versus b , which is the one with smaller reported flash point? Lab log: write the label of the selected item as the result. b

a: CCCOCCC
b: CC(=O)c1ccccc1
Hi there! Just curious which has the higher flash point between a and b . Pick one; state its label. b
(b: 82 °C, a: -28 °C)

---

measured.attribute: flash point (°C)

CC(C)(N)CO | 67
CC1CCCC(O)C1 (stereo not drawn) | 62
CCCCOCCCN | 63
CCC(C)OC(C)=O (stereo not drawn) [sec-butyl acetate] | 16
C=CCOC(C)=O [allyl acetate] | 6
c1ccc(Cc2ccccc2)cc1 | 127

1: OC1CCCC1
2: C1=CCCCC1
Please choose the item with the lower flash point value from this pair: 1 and 2 Which one? Tell me its label. 2

---

Below is a list of entries, each paired with its recorded flash point value.
Your answer should be a plain number; it is taken to be in °C.

Example results:
CCCC#N [n-Butyronitrile] | 26.00
CC1COC(=O)O1 (centres undefined) [Propylene carbonate] | 135.00
CN [Monomethylamine] | -10.00

Let us examine a further case.
Please report flash point for the following compound: NC1CCCCC1 [Cyclohexylamine] 32.00

---

measured.attribute: flash point (°C)

CN=C=S [methyl isothiocyanate] | 32
OCCCO | 131
CCC(Cl)CCl (centres undefined) | 26
COC(=O)c1ccccc1O [methyl salicylate] | 96
CCCC(=O)OC(=O)CCC [butyric anhydride] | 87

P: CCCCC(C)CC (centres undefined)
Q: CC(C)(C)c1ccccc1
R: CCC1=NCCO1
S: CCC(C)OC (centres undefined)
T: CC(C)(C)CC(=O)O
Task field, ranking: reported flash point, descending order. # answer = labels listed in requested order T, Q, R, P, S

1: CSCCC=O
2: CCOC(OCC)OCC
3: COC(OC)OC
Output the entries ranked by flash point from maximum down to minimum. Note for the reader: the ranking is given by listing the labels in the order requested. 1, 2, 3
(1: 58 °C, 2: 30 °C, 3: 15 °C)
